Ref: paper PMC11190158

tested on: U251; conditions: U251 tumor cells, CCK-8
Positions of bridges follow the written chain, without caps; N, C: chain ends. Non-standard residues stand in square brackets, D forms with d. Residues, ends and D or L forms follow the SMILES beside them. S5 = C=CCCC[C@](C)(N)C(=O)O
VALUE_KIND: concentration at which in vitro anti-tumor activity was exhibited (µM)
The reply should be a number in µM, with the unit left off.

The reported value for CSCC[C@H](NC(=O)[C@H](CC(C)C)NC(=O)[C@H](CCC(N)=O)NC(=O)[C@H](C)NC(=O)[C@H](Cc1c[nH]c2ccccc12)NC(=O)[C@H](Cc1ccc(O)cc1)NC(=O)[C@]1(C)CCCC=CCCC[C@](C)(NC(=O)[C@H](CCCCN)NC(C)=O)C(=O)N[C@@H]([C@@H](C)O)C(=O)N[C@@H](Cc2ccccc2)C(=O)N[C@@H](CC(C)C)C(=O)N1)C(=O)N[C@@H](CCC(N)=O)C(=O)N[C@@H](CCCCN)C(N)=O [SM3-1] (Ac-K[S5]TFL[S5]YWAQLMQK-NH2; staple 2-6) in terms of concentration at which in vitro anti-tumor activity was exhibited is 50

###

Please provide measured helicity for the entries that follow.
assay: Circular dichroism, degree of helicity; type: physicochemical; conditions: CD, PB pH 7.2, 10–50 mmol/L peptide, ambient temperature, 1-mm path length, 185–255 nm
Positions of bridges follow the written chain, without caps; N, C: chain ends. Non-standard residues stand in square brackets, D forms with d. Residues, ends and D or L forms follow the SMILES beside them. R8 = C=CCCCCCC[C@@](C)(N)C(=O)O; S5 = C=CCCC[C@](C)(N)C(=O)O
Please respond with the number in % and leave the unit unwritten.

Form field helicity, entry CC(=O)N[C@@H](CCCCN)C(=O)N[C@@H](CC(C)C)C(=O)N[C@H](C(=O)N[C@@H](Cc1ccccc1)C(=O)N[C@]1(C)CCCCCCC=CCCC[C@@](C)(C(=O)N[C@@H](CCC(N)=O)C(=O)N[C@@H](CCCCN)C(N)=O)NC(=O)[C@H](CC(C)C)NC(=O)[C@H](CCC(N)=O)NC(=O)[C@H](C)NC(=O)[C@H](Cc2c[nH]c3ccccc23)NC(=O)[C@H](Cc2ccc(O)cc2)NC(=O)[C@H](CCC(=O)O)NC1=O)[C@@H](C)O [SM3-8] (Ac-KLTF[R8]EYWAQL[S5]QK-NH2; staple 5-12) : 52.02

Note to self: helicity recorded for CSCC[C@@H]1NC(=O)[C@H](CC(C)C)NC(=O)[C@H](CCC(N)=O)NC(=O)[C@@](C)(NC(=O)[C@H](Cc2c[nH]c3ccccc23)NC(=O)[C@H](Cc2ccc(O)cc2)NC(=O)[C@H](CCC(=O)O)NC(=O)[C@H](CC(C)C)NC(=O)[C@H](Cc2ccccc2)NC(=O)[C@@H](NC(=O)[C@H](CC(C)C)NC(=O)[C@H](CCCCN)NC(C)=O)[C@@H](C)O)CCCC=CCCC[C@@](C)(C(=O)N[C@@H](CCCCN)C(N)=O)NC1=O [SM3-5] (Ac-KLTFLEYW[S5]QLM[S5]K-NH2; staple 9-13) was 42.85

###

test: circular dichroism; conditions: phosphate buffer (PB); pH 7.2; ns °C; 10-50 (printed mmol/L, probably uM)
Positions of bridges follow the written chain, without caps; N, C: chain ends. Non-standard residues stand in square brackets, D forms with d. Residues, ends and D or L forms follow the SMILES beside them. S5 = C=CCCC[C@](C)(N)C(=O)O
VALUE_KIND: helicity (%)
The response must be a number in % with no trailing unit.

Recorded helicity (compound CSCC[C@H](NC(=O)[C@H](CC(C)C)NC(=O)[C@H](CCC(N)=O)NC(=O)[C@]1(C)CCCC=CCCC[C@](C)(NC(=O)[C@H](Cc2ccccc2)NC(=O)[C@@H](NC(=O)[C@H](CC(C)C)NC(=O)[C@H](CCCCN)NC(C)=O)[C@@H](C)O)C(=O)N[C@@H](CCC(=O)O)C(=O)N[C@@H](Cc2ccc(O)cc2)C(=O)N[C@@H](Cc2c[nH]c3ccccc23)C(=O)N1)C(=O)N[C@@H](CCC(N)=O)C(=O)N[C@@H](CCCCN)C(N)=O [SM3-3] (Ac-KLTF[S5]EYW[S5]QLMQK-NH2; staple 5-9) ): 38.1

Reported helicity for CSCC[C@H](NC(=O)[C@H](CC(C)C)NC(=O)[C@H](CCC(N)=O)NC(=O)[C@H](C)NC(=O)[C@H](Cc1c[nH]c2ccccc12)NC(=O)[C@H](Cc1ccc(O)cc1)NC(=O)[C@]1(C)CCCC=CCCC[C@](C)(NC(=O)[C@H](CCCCN)NC(C)=O)C(=O)N[C@@H]([C@@H](C)O)C(=O)N[C@@H](Cc2ccccc2)C(=O)N[C@@H](CC(C)C)C(=O)N1)C(=O)N[C@@H](CCC(N)=O)C(=O)N[C@@H](CCCCN)C(N)=O [SM3-1] (Ac-K[S5]TFL[S5]YWAQLMQK-NH2; staple 2-6) was 42.4

Measured helicity, CSCC[C@H](NC(=O)[C@H](CC(C)C)NC(=O)[C@H](CCC(N)=O)NC(=O)[C@H](C)NC(=O)[C@H](Cc1c[nH]c2ccccc12)NC(=O)[C@]1(C)CCCC=CCCC[C@](C)(NC(=O)[C@H](CC(C)C)NC(=O)[C@H](CCCCN)NC(C)=O)C(=O)N[C@@H](Cc2ccccc2)C(=O)N[C@@H](CC(C)C)C(=O)N[C@@H](CCC(=O)O)C(=O)N1)C(=O)N[C@@H](CCC(N)=O)C(=O)N[C@@H](CCCCN)C(N)=O [SM3-2] (Ac-KL[S5]FLE[S5]WAQLMQK-NH2; staple 3-7) : 5.85

###

tested on: U87 MG; details: U87 MG tumor cells, CCK-8
Positions of bridges follow the written chain, without caps; N, C: chain ends. Non-standard residues stand in square brackets, D forms with d. Residues, ends and D or L forms follow the SMILES beside them. R8 = C=CCCCCCC[C@@](C)(N)C(=O)O; S5 = C=CCCC[C@](C)(N)C(=O)O
Assignment: determine reported concentration at which in vitro anti-tumor activity was exhibited for the given compounds.
Use µM as the unit, but write only the number.

Record summary for CSCC[C@@H]1NC(=O)[C@H](CC(C)C)NC(=O)[C@H](CCC(N)=O)NC(=O)[C@@](C)(NC(=O)[C@H](Cc2c[nH]c3ccccc23)NC(=O)[C@H](Cc2ccc(O)cc2)NC(=O)[C@H](CCC(=O)O)NC(=O)[C@H](CC(C)C)NC(=O)[C@H](Cc2ccccc2)NC(=O)[C@@H](NC(=O)[C@H](CC(C)C)NC(=O)[C@H](CCCCN)NC(C)=O)[C@@H](C)O)CCCC=CCCC[C@@](C)(C(=O)N[C@@H](CCCCN)C(N)=O)NC1=O [SM3-5] (Ac-KLTFLEYW[S5]QLM[S5]K-NH2; staple 9-13) : reported concentration at which in vitro anti-tumor activity was exhibited = 25

concentration at which in vitro anti-tumor activity was exhibited measured on CSCC[C@H](NC(=O)[C@H](CC(C)C)NC(=O)[C@H](CCC(N)=O)NC(=O)[C@H](C)NC(=O)[C@H](Cc1c[nH]c2ccccc12)NC(=O)[C@H](Cc1ccc(O)cc1)NC(=O)[C@]1(C)CCCC=CCCC[C@](C)(NC(=O)[C@H](CCCCN)NC(C)=O)C(=O)N[C@@H]([C@@H](C)O)C(=O)N[C@@H](Cc2ccccc2)C(=O)N[C@@H](CC(C)C)C(=O)N1)C(=O)N[C@@H](CCC(N)=O)C(=O)N[C@@H](CCCCN)C(N)=O [SM3-1] (Ac-K[S5]TFL[S5]YWAQLMQK-NH2; staple 2-6) = 25

// sample CC(=O)N[C@@H](CCCCN)C(=O)N[C@@H](CC(C)C)C(=O)N[C@H](C(=O)N[C@@H](Cc1ccccc1)C(=O)N[C@]1(C)CCCCCCC=CCCC[C@@](C)(C(=O)N[C@@H](CCC(N)=O)C(=O)N[C@@H](CCCCN)C(N)=O)NC(=O)[C@H](CC(C)C)NC(=O)[C@H](CCC(N)=O)NC(=O)[C@H](C)NC(=O)[C@H](Cc2c[nH]c3ccccc23)NC(=O)[C@H](Cc2ccc(O)cc2)NC(=O)[C@H](CCC(=O)O)NC1=O)[C@@H](C)O [SM3-8] (Ac-KLTF[R8]EYWAQL[S5]QK-NH2; staple 5-12) , its concentration at which in vitro anti-tumor activity was exhibited was 50

###

system: U87 MG; conditions: U87 MG tumor cells, CCK-8
Positions of bridges follow the written chain, without caps; N, C: chain ends. Non-standard residues stand in square brackets, D forms with d. Residues, ends and D or L forms follow the SMILES beside them. S5 = C=CCCC[C@](C)(N)C(=O)O
VALUE_KIND: concentration at which in vitro anti-tumor activity was exhibited (µM)
Quick note: give the figure in µM, leave out the unit.

Kindly note the recorded concentration at which in vitro anti-tumor activity was exhibited for CSCC[C@H](NC(=O)[C@H](CC(C)C)NC(=O)[C@H](CCC(N)=O)NC(=O)[C@H](C)NC(=O)[C@H](Cc1c[nH]c2ccccc12)NC(=O)[C@]1(C)CCCC=CCCC[C@](C)(NC(=O)[C@H](CC(C)C)NC(=O)[C@H](CCCCN)NC(C)=O)C(=O)N[C@@H](Cc2ccccc2)C(=O)N[C@@H](CC(C)C)C(=O)N[C@@H](CCC(=O)O)C(=O)N1)C(=O)N[C@@H](CCC(N)=O)C(=O)N[C@@H](CCCCN)C(N)=O [SM3-2] (Ac-KL[S5]FLE[S5]WAQLMQK-NH2; staple 3-7) , which is 25

concentration at which in vitro anti-tumor activity was exhibited reading for CSCC[C@H](NC(=O)[C@H](CC(C)C)NC(=O)[C@H](CCC(N)=O)NC(=O)[C@]1(C)CCCC=CCCC[C@](C)(NC(=O)[C@H](Cc2ccccc2)NC(=O)[C@@H](NC(=O)[C@H](CC(C)C)NC(=O)[C@H](CCCCN)NC(C)=O)[C@@H](C)O)C(=O)N[C@@H](CCC(=O)O)C(=O)N[C@@H](Cc2ccc(O)cc2)C(=O)N[C@@H](Cc2c[nH]c3ccccc23)C(=O)N1)C(=O)N[C@@H](CCC(N)=O)C(=O)N[C@@H](CCCCN)C(N)=O [SM3-3] (Ac-KLTF[S5]EYW[S5]QLMQK-NH2; staple 5-9) : 50
